Target: T1, Mouse Id2: Histidine (mouse, UniProt P41136 1-134, limits assumed)
T1 construct: Fusion protein made in E. coli from vector pGW07; also called m-Id2: His; not shown: His tag
T1 sequence (looked up): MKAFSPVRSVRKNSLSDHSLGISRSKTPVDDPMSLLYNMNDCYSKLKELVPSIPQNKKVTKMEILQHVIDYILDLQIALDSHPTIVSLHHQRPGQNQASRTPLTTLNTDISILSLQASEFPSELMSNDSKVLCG
Assay: ELISA, Ab 0.100 µg/ml

| BINDER | A450 |
| --- | --- |
| rabbit monoclonal anti-mouse/human Id3, clone #BCH-4/#16-1 (antibody, V domains shown, Rabbit IgG from a rabbit hybridoma; also called m/h Id3 MoAb 16-1) VH: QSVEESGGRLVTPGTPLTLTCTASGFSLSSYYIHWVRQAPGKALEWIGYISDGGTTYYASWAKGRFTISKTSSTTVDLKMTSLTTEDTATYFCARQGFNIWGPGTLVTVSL VL: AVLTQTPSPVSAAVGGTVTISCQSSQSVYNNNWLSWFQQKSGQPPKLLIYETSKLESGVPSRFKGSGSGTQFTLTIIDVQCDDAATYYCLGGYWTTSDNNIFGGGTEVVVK | 0.055 A450 |
| rabbit monoclonal anti-mouse/human Id3, clone #BCH-4/#42-1 (antibody, V domains shown, Rabbit IgG from a rabbit hybridoma; also called m/h Id3 MoAb 42-1) VH: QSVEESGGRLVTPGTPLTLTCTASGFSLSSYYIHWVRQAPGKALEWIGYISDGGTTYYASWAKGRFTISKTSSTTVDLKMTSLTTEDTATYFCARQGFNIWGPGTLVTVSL VL: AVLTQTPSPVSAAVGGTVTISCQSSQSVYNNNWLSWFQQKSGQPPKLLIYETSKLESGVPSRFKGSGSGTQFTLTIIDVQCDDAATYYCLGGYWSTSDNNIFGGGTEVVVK | 0.058 A450 |
